// provenance: patent US12042530B2

target: HLA-B*0702 (Homo sapiens); construct: endogenous in cells; host or cells: melanoma and/or leukemia cells; assay: Phosphopeptides presented in association with class I molecules (HLA-B*0702) on cancer cells: melanoma and/or leukemia; set-up: key: Melanoma (M); Leukemia (L); L/M: Melanoma (M) and/or Leukemia (L); conditions: cancer type on which the HLA-B*0702 phosphopeptide is presented
Non-standard residues stand in square brackets, D forms with d. No end group written: not given here. pS = N[C@@H](COP(=O)(O)O)C(=O)O
ATTRIBUTE_MEASURED: L/M

319 (RPN[pS]PSPTAL; listed as Homo sapiens) [compound 319]	L
278 (GPR[pS]ASLLSL; not fully specified; listed as Homo sapiens) [compound 278]	M
392 (YQR[pS]FDEVEGVF; listed as Homo sapiens) [compound 392]	L
285 (KPP[pS]PEHQSL; listed as Homo sapiens) [compound 285]	L
